System: NCI-H460 lung
procedure.details: NCI-60 one-dose screen, 48 h
recorded.conditions: 10 µM unless noted
This is part of a sample that, as a whole, favours compounds with a hit. Of some 83,000 tested, about 20% had one in any assay. The source made the active and inactive calls. Rule for the calls: active = growth percent below 10; inactive = the rest.
# valid calls are T for active, F for inactive; nothing else

{"columns": ["molecule", "group"],
 "data": [
  ["CC(C)C(C(=O)CCN(C)C)c1ccc(Cl)cc1 (stereo not given)", "F"]
]}

Moving on to the next molecule.
Per the records of this test, what outcome belongs to COc1ccc(/C=C/c2nc(N3CCOCC3)c3cc(F)c(F)cc3n2)cc1OC ?
F

----------
Each record here notes measured growth.
Test system: IGROV1 ovarian
procedure.details: NCI-60 one-dose screen, 48 h (100 = growth as untreated, 0 = no growth, -100 = all killed)
recorded.conditions: 10 µM unless noted
Method: Growth inhibition of the IGROV1 human tumor cell line is measured as a screen for anti-cancer activity. Cells are grown in 96 well plates and exposed to the test compound for 48 hours. Compounds are tested at a single concentration, which is 10^-5 M for most compounds. The reported endpoint is percent growth (GI% or GIPRCNT), where numbers from 0 - 100% represent growth inhibition, and numbers from -100% - 0 represent cell death. For example, a value of 40 represents 60% growth inhibition. […]
This is part of a sample that, as a whole, favours compounds with a hit. Of some 83,000 tested, about 20% had one in any assay.
Field: numeric (%). Do not append units.

For orientation, consider the following solved cases.
{"columns": ["compound", "quantity.unit", "reported.measurement"],
 "data": [
  ["CCCOC(=O)C1(O)CCCC1", "%", 107],
  ["CC/C=C\\C[C@H](O)C/C=C1/C(=O)C(Cl)=C[C@@H]1C/C=C\\CCCC(=O)O", "%", 82.7],
  ["COc1ccc(-c2nc(-c3ccccc3)c(-c3ccccc3)n2C2CC2)cc1OC1CCCCC1", "%", 63.1],
  ["Clc1nc(-c2cccnc2)nc2sc3c(c12)CCCCCC3", "%", 107],
  ["COc1ccc(OC)c(-c2ccc(-c3ccccc3N)c3[nH]c4ccccc4c23)c1", "%", 59.5],
  ["CCCC(C(=O)OCC)C(C)OC(=O)OCC (stereo unspecified)", "%", 115]
]}

Dear colleague, please send me the reported growth for CCOC(=O)c1cc(/C(=N\O)c2cc(OC)c(OC)c(OC)c2)n2cc(C)cc(C)c12 when you can.
57.5

Name the recorded growth of the compound listed here: C#CCN1C(=O)/C(=c2\sc3n(c2=O)C2C(NN=3)N(CC)C(=O)N2CC)c2ccccc21 (stereo unspecified)
27.6

Entry COc1ccc(-c2nc(-c3nc4ccc(F)cc4[nH]3)cc3c2[nH]c2ccccc23)cc1 needs its growth filled in; supply it.
27

Identify the reported growth for the following entry. COc1cc2c(cc1OC)C1(C)N(CC2)C(=O)OC1(C)C (stereo unspecified)
109

Respond only with growth recorded for CCNCc1ccncc1
111

----------
Test system: OVCAR-5 ovarian
procedure.details: NCI-60 one-dose screen, 48 h (100 = growth as untreated, 0 = no growth, -100 = all killed)
recorded.conditions: 10 µM unless noted
About 83,000 compounds went through this panel and 20% of them were active in at least one assay; those are over-represented in the sample as a whole.
quantity: growth (%)
Numeric only. Scale: %

Reference set (10 entries):
{"columns": ["compound", "measured.on", "quantity.unit", "growth"],
 "data": [
  ["O=C(O)c1cn(C2CC2)c2cc(N3CCN(S(=O)(=O)c4ccc(Cl)c(Cl)c4)CC3)c(F)cc2c1=O", "OVCAR-5 ovarian", "%", 12.5],
  ["CCN(CC)CCCNc1nc(C)cc(Nc2ccc3nc(C)cc(N)c3c2)n1", "OVCAR-5 ovarian", "%", 102],
  ["O=C(/C=C/c1ccccc1)n1c(-c2ccc(Cl)cc2)nc2ccccc21", "OVCAR-5 ovarian", "%", -48.1],
  ["O=Nc1c(-c2c(O)[nH]c3ccc([N+](=O)[O-])cc23)[nH]c2ccc(O)cc12", "OVCAR-5 ovarian", "%", 110],
  ["CC1=C(C#N)C(C)(C)C(C#N)=C(C)N1", "OVCAR-5 ovarian", "%", 87.7],
  ["O=C(CN1CCN(c2cc3c(cc2F)c(=O)c(C(=O)O)cn3C2CC2)CC1)Nc1ccc(C(=O)/C=C/c2ccccc2)cc1", "OVCAR-5 ovarian", "%", 82.6],
  ["O=c1[nH]c2ccccc2cc1-c1nnc(Cc2ccccc2)o1", "OVCAR-5 ovarian", "%", 120],
  ["COc1cc(C2C=C(C)N=C3SC=C(C)N32)cc(OC)c1OC (centres undefined)", "OVCAR-5 ovarian", "%", -45.8],
  ["O=C(O)c1ccc(-n2c(=O)c3ccccc3c3ccccc3c2=O)cc1", "OVCAR-5 ovarian", "%", 99.6],
  ["O=S(=O)(NCCCNc1cc(-c2cn(-c3ccccc3)nc2-c2cccc(O)c2)ccn1)c1cccc2ccccc12", "OVCAR-5 ovarian", "%", 59.7]
]}

Now for a further compound.
Specify growth for CN(C)c1ccc(/C=C\N=Nc2ccc(Br)cc2)cc1 , system OVCAR-5 ovarian.
76.6
